Data origin, for the record: the nanobody polyreactivity screen of Harvey et al. (2022)

procedureSummary: yeast display, Sf9 membrane polyspecificity reagent, FACS + sequencing; frameworks hold sequencing errors

>  <sequenceEntry>
QVQLVESGGGLVQAGGSLRLSCAASGRIFYRNVMGWYRQAPGKERELVAAITYRTGSTYYADSVKGRFTISRDNAKNTVYLQMNSLKPEDTAVYYCATESGLTYDYWGQGTQVTVSS

>  <polyreactivity (PSR sort gate)>
high polyreactivity

$$$$
>  <sequenceEntry>
QVQHVESGGGLVQAGGSLRLSCAASGSILDIYAMGWYRQATGKERELVAAITGGGSTNYADSVNGRFTISRDNAKNTVYLLMNSLKPEDTAVYYCAAGTYLNGGGEYWGQGTQVTVSS

>  <polyreactivity (PSR sort gate)>
low polyreactivity

$$$$
>  <sequenceEntry>
QVQLVESGGGLFQAGGSLRISCAASGSIFRSYAMGWYRQAPGKERELVASISRRGGSTYYADSVKGRFTISRDNAKNTVYLQMNSLKPEDTAVYYCAAVRYNSRVSTTPSEMYYWGQGTQVTVSS

>  <polyreactivity (PSR sort gate)>
low polyreactivity

$$$$
>  <sequenceEntry>
QVQLVESGGGLVQAGGRLRLSCAASGSTFLNYAMGWYRQAPGKQRELVSSIDSSDGRTYYADSVKGRFTISRDNAKNTVYLQMNSLKPEDTEVYYCAKDSYAVELRPYSKLSSRADGYWGQGTQVTVSS

>  <polyreactivity (PSR sort gate)>
low polyreactivity

$$$$
>  <sequenceEntry>
QVQLVESGGGLVQAGGSLRLSCAASGITFYYYAMGWYRQAPGKERELVAAISRSGGRTYYADSVKGRFTISRDNAKNTVYLQMNSLKPEDTAVYYCAAVRYQGGDSSIEYDYWGQGTQVTVSS

>  <polyreactivity (PSR sort gate)>
high polyreactivity

$$$$
>  <sequenceEntry>
QVQLEESGGGLVHAGGSLRLSCAASGFTFYSYAMGWYRQAPGKERELVAAITQSGGSTYYADSVKGRFTISRDNAKNTVYFQMNSLKPEDTAVYYCAAGRRSSWRYYLWYDYWGQGTQVTVSS

>  <polyreactivity (PSR sort gate)>
low polyreactivity

$$$$
>  <sequenceEntry>
QVQLVESGGGLVQAGGSLRLSCAASGRIFKNYAMGWYRQAPGKERELVAAITWSGGRTYYADSVKGRFTISRDNAKNTVYLQMNSLKPEDTAVYYCATAARRGPTSIEPFGYGSWGQGTQVTVSS

>  <polyreactivity (PSR sort gate)>
high polyreactivity

$$$$
>  <sequenceEntry>
QVQLVESGGGLVQAGGSLRLSCAASGRIFSVYTMGWYRKAPGKERELVATISSGGRTNYADSVKGRFTISRDNAKNTVYLQMNSLKPEDTAVYYCAAVPYGFVGYDDYWGQGTQVTVSS

>  <polyreactivity (PSR sort gate)>
low polyreactivity

$$$$
>  <sequenceEntry>
QVQLEESGGGLFQAGGSLRLICAATGSIFRVYVMGWYIQAPGKERELVAAITSSDGTTYYADSVKGRFTISRDNAKNTVYLQMNSLKPEDTALYYCNAEFYSPPVVGPRYWYPGFYWGQGTQVTVSS

>  <polyreactivity (PSR sort gate)>
low polyreactivity

$$$$
>  <sequenceEntry>
QVQLVESGGGIVQAGGSLPLSSAASGSTFPYNTMGWYIQAPGKERELVAAISQRGGSTYADSVKGRFTISRDNAKNTVYLEMNSLKPEDTAVYYCNKRNVYYSYPFDYDYWGQGTQVTVCS

>  <polyreactivity (PSR sort gate)>
low polyreactivity

$$$$
>  <sequenceEntry>
QVQLVESGGGLVQAGGSLRLSCAASGLIFTRNFMGWYRQAPGKERELVAAITSGGSTYYADSVKRRFTISRDNAKNTVYLQMNSLNPEDTADYYCAAGCDYLLSTVRFDYWGQGTQVTVSS

>  <polyreactivity (PSR sort gate)>
high polyreactivity

$$$$
